system: mice; assay: supramaximal electroshock assay (SES, anticonvulsant); assay type: in vivo; details: Mus musculus, ip, male mice, at peak activity time
Hi there, I'd appreciate the recorded ED50 for every entry that follows.
Provide the reading as a plain figure in mg/kg.

Per the reported mice data, `Br.CN(C(=O)CN)n1cccc1C(=O)c1ccccc1F` has ED50 of 8.2

Per the reported mice data, `CN1C(=O)CN=C(c2ccccc2F)c2ccc(Cl)n21.Cl` has ED50 of 36.1

Per the reported mice data, `CN1C(=O)CN=C(c2ccccc2F)c2cccn21.Cl` has ED50 of 43.6

Per the reported mice data, `CN1C(=O)CN=C(c2ccccc2Cl)c2cccn21` has ED50 of 17.9
